Reported growth values for a set of compounds
Tested on: UO-31 renal
Assay: NCI-60 one-dose screen, 48 h (100 = growth as untreated, 0 = no growth, -100 = all killed)
Conditions: 10 µM unless noted
This is part of a sample that, as a whole, favours compounds with a hit. Of some 83,000 tested, about 20% had one in any assay. Activity calls are given as the source filed them. Rule for the calls: active = growth percent below 10; inactive = the rest.
MEASURED_PARAMETER: growth

>>> value_reported("Cc1ccc(-c2nn(-c3ccccc3)cc2/C=C/C(=O)c2ccc(NC(=O)CCCCCCC(=O)NO)cc2)cc1")
"52.2% (inactive)"
>>> value_reported("COC(=O)C(Cc1ccccc1)Nc1nc(NC(Cc2ccccc2)C(=O)OC)nc(N2CCOCC2)n1 (stereo not given)")
"81.2% (inactive)"
>>> value_reported("CCOC(=O)c1c(Nc2ccccc2)nn2c(-c3ccccc3)ccnc12")
"85.5% (inactive)"
>>> value_reported("O=C(CSc1nnc(-c2ccc(Cl)cc2)n1-c1ccccc1)Nc1ccc(Br)cc1")
"-19.4% (active)"
>>> value_reported("NC(N)=Nc1ccc(Oc2cccc(NC(N)=Nc3ccc(Br)c(C(F)(F)F)c3)c2)cc1")
"89.3% (inactive)"
>>> value_reported("Cn1cc(CNc2nc3ccc(OC/C(=C/F)CN)cc3o2)ccc1=O")
"93.1% (inactive)"
>>> value_reported("N=c1c2cc(-c3ccccc3)oc2ncn1/N=C/c1ccc(Br)cc1")
"85.4% (inactive)"
>>> value_reported("CCCCCc1ccc(S(=O)(=O)Nc2cccc(-c3csc(NC(=O)CN4CCN(C)CC4)n3)c2)cc1")
"75% (inactive)"
>>> value_reported("CC(=O)C1=C(C)NC(NNC(N)=S)=NC1c1ccccc1 (stereo not given)")
"59.5% (inactive)"
>>> value_reported("CN1CCN(Cc2ccc(NC(=O)c3cncc(C#Cc4cnc5ccc(N6CCN(C)CC6)nn45)c3)cc2C(F)(F)F)CC1")
"20.1% (inactive)"
>>> value_reported("CC1(C)NCCC[C@]2(C)[C@H]3C/C(=N\\O)C4[C@@H]5C[C@@](C)(CO)CC[C@]5(C)CC[C@@]4(C)[C@]3(C)CC[C@@H]12 (stereo not given in full)")
"90.2% (inactive)"
>>> value_reported("CCCn1cnc2c(c1=N)C(c1ccc(OC)cc1)c1sc3c(C)cccc3c1O2 (stereo not given)")
"27.2% (inactive)"
>>> value_reported("CCCCCc1ccc(S(=O)(=O)Nc2cccc(-c3csc(NC(=O)CCCCCN4CCN(C)CC4)n3)c2)cc1")
"75.9% (inactive)"
>>> value_reported("O=C1/C(=C/C=C/c2ccco2)SC(=S)N1C1CCCCC1")
"85.6% (inactive)"
>>> value_reported("COc1ccc(N2C(=O)c3cc(Cl)ccc3NC2SCc2ccccc2)cc1 (stereo not given)")
"63.8% (inactive)"
>>> value_reported("NC(=O)c1c(NC(=O)c2ccc(F)cc2F)sc2c1CCC(=O)C2")
"29.3% (inactive)"
>>> value_reported("COc1cc(/C=C/C(=O)c2ccc(NC(=O)CSc3nnc(-c4ccc(-c5nc6ccc(Cl)cc6[nH]5)cc4)o3)cc2)cc(OC)c1OC")
"86% (inactive)"
>>> value_reported("CCCn1cnc2c(c1=N)C(c1ccc(Cl)cc1)c1sc3c(CC)cccc3c1O2 (stereo not given)")
"32.4% (inactive)"
>>> value_reported("CC1(COc2ccc3ncc(C#Cc4cncc(C(=O)Nc5cccc(C(F)(F)F)c5)c4)n3n2)COC1")
"58.2% (inactive)"
>>> value_reported("O=C(CCC(=O)N1CCOCC1)OCCCCCCSc1ccc([N+](=O)[O-])c2nonc12")
"-84.2% (active)"
>>> value_reported("COc1c(N2CC3CCCNC3C2)c(F)cc2c(=O)c(C(=O)N/N=C/c3ccccc3)cn(C3CC3)c12 (stereo not given)")
"86.4% (inactive)"
>>> value_reported("NC(N)=Nc1ccc(Oc2cccc(Nc3ccc(Br)c(C(F)(F)F)c3)c2)cn1")
"38.6% (inactive)"
>>> value_reported("CC1(C)[C@@H](O)CC[C@]2(C)[C@H]3CC[C@@H]4[C@H]5[C@H](C(=O)/C=C\\c6ccccn6)CC[C@]5(O)CC[C@@]4(C)[C@]3(C)CC[C@@H]12")
"50.8% (inactive)"
>>> value_reported("CCCCCc1ccc(S(=O)(=O)Nc2cc(-c3csc(NC(=O)CN4CCN(CCO)CC4)n3)ccc2OC)cc1")
"54.5% (inactive)"
>>> value_reported("NC(N)=Nc1ccc(Oc2cccc(Nc3cccc(C(F)(F)F)c3)c2)cn1")
"42.8% (inactive)"
>>> value_reported("COc1ccc(N2CCN(C3=C(Cl)C(=O)C(C)=C(C)C3=O)CC2)cc1")
"91.4% (inactive)"
>>> value_reported("Nc1nc(Nc2ccccc2SSc2ccccc2Nc2nc(N)nc(-c3cccc(Br)c3)n2)nc(-c2cccc(Br)c2)n1")
"-7.87% (active)"
>>> value_reported("COc1ccc(C(=O)CSc2nc3c(c(Nc4ccc(S(N)(=O)=O)cc4)n2)CCCC3)cc1")
"81.1% (inactive)"
>>> value_reported("O=C(NNc1nc2cc(F)cc(F)c2n2cccc12)c1cnccn1")
"18.1% (inactive)"
>>> value_reported("CCc1nn2c(C)cc(C)nc2c1Cc1ccc(/C=C/CN2CCN(CCOCCOCCN3CCN(C/C=C/c4ccc(Cc5c(CC)nn6c(C)cc(C)nc56)cc4)CC3)CC2)cc1")
"-95.9% (active)"
>>> value_reported("O=C(Nc1cccc(Cl)c1)Nc1nc2ccc([N+](=O)[O-])cc2o1")
"24% (inactive)"
>>> value_reported("Cc1ccc(-n2cc(/C=C/C(=O)c3ccc(O)cc3)c(-c3ccc(S(C)(=O)=O)cc3)n2)cc1")
"76.4% (inactive)"
>>> value_reported("CCN1CCN(Cc2cn(-c3ccc(S(N)(=O)=O)cc3)nn2)CC1")
"94% (inactive)"
>>> value_reported("CC[C@]12C=CCN3CC[C@@]4(c5cc(NC(=O)COc6cc(O)c7c(=O)cc(-c8ccccc8)oc7c6)c(OC)cc5N(C)[C@H]4[C@@](O)(C(=O)OC)[C@@H]1OC(C)=O)[C@@H]32")
"-84.9% (active)"
>>> value_reported("CCCn1cnc2c(c1=N)C(c1ccc(F)cc1)c1sc3c(CC)cccc3c1O2 (stereo not given)")
"27% (inactive)"
